Numbers sourced from patent US20160022764A1.

Target system: melanocortin-3 receptor (human, UniProt P41968 1-323)
Sequence (P41968 whole entry): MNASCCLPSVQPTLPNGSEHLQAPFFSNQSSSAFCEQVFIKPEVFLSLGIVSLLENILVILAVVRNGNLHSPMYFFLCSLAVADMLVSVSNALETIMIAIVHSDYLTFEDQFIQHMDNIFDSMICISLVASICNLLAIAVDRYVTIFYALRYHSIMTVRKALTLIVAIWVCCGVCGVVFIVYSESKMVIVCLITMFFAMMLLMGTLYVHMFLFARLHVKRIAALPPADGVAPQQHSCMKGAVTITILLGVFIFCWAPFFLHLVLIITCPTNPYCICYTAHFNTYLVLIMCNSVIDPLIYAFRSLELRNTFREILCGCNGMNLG
Measurement description: cell-based or functional assay
Bridge positions count the residues as written; N and C are the ends. Square brackets hold non-standard residues; d marks the D form. dTle = CC(C)(C)[C@@H](N)C(=O)O; hCys = N[C@@H](CCS)C(=O)O

{"columns": ["Binder", "Inequality operator", "cAMP Assay (EC-50) [nM]"],
 "data": [
  ["Ac-R[hCys][dA][dF]RWC-NH2 (disulfide 2-7; SMILES CC(=O)N[C@@H](CCCNC(=N)N)C(=O)N[C@H]1CCSSC[C@@H](C(N)=O)NC(=O)[C@H](Cc2c[nH]c3ccccc23)NC(=O)[C@H](CCCNC(=N)N)NC(=O)[C@@H](Cc2ccccc2)NC(=O)[C@@H](C)NC1=O) [Compound 16: Ac-Arg-cyclo[hCys-D-Ala-D-Phe-Arg-Trp-Cys]-NH2]", "=", 3160],
  ["Ac-RC[dA]P[dF]RWC-NH2 (disulfide 2-8; SMILES CC(=O)N[C@@H](CCCNC(=N)N)C(=O)N[C@H]1CSSC[C@@H](C(N)=O)NC(=O)[C@H](Cc2c[nH]c3ccccc23)NC(=O)[C@H](CCCNC(=N)N)NC(=O)[C@@H](Cc2ccccc2)NC(=O)[C@@H]2CCCN2C(=O)[C@@H](C)NC1=O) [Compound 13: Ac-Arg-cyclo[Cys-D-Ala-Pro-D-Phe-Arg-Trp-Cys]-NH2]", ">", 10000],
  ["Ac-RC[dA]R[dF]RWC-NH2 (disulfide 2-8; SMILES CC(=O)N[C@@H](CCCNC(=N)N)C(=O)N[C@H]1CSSC[C@@H](C(N)=O)NC(=O)[C@H](Cc2c[nH]c3ccccc23)NC(=O)[C@H](CCCNC(=N)N)NC(=O)[C@@H](Cc2ccccc2)NC(=O)[C@H](CCCNC(=N)N)NC(=O)[C@@H](C)NC1=O) [Compound 10: Ac-Arg-cyclo[Cys-D-Ala-Arg-D-Phe-Arg-Trp-Cys]-NH2]", "=", 3.9],
  ["Ac-RC[dTle]H[dF]RWC-NH2 (disulfide 2-8) [Compound 3: Ac-Arg-cyclo[Cys-D-Tle-His-D-Phe-Arg-Trp-Cys]-NH2]", "=", 0.7]
]}
